The entries below are paired with their reported Max.
TEST_SYSTEM: T1, human ROR1 on cells (HEK293T-hROR1, PANC-1, A549) (human, UniProt Q01973 30-937)
T1 construct: whole, on cells; one molecule for the three cell lines; also called huROR1; cell surface ROR1
T1 sequence (Q01973 30-937): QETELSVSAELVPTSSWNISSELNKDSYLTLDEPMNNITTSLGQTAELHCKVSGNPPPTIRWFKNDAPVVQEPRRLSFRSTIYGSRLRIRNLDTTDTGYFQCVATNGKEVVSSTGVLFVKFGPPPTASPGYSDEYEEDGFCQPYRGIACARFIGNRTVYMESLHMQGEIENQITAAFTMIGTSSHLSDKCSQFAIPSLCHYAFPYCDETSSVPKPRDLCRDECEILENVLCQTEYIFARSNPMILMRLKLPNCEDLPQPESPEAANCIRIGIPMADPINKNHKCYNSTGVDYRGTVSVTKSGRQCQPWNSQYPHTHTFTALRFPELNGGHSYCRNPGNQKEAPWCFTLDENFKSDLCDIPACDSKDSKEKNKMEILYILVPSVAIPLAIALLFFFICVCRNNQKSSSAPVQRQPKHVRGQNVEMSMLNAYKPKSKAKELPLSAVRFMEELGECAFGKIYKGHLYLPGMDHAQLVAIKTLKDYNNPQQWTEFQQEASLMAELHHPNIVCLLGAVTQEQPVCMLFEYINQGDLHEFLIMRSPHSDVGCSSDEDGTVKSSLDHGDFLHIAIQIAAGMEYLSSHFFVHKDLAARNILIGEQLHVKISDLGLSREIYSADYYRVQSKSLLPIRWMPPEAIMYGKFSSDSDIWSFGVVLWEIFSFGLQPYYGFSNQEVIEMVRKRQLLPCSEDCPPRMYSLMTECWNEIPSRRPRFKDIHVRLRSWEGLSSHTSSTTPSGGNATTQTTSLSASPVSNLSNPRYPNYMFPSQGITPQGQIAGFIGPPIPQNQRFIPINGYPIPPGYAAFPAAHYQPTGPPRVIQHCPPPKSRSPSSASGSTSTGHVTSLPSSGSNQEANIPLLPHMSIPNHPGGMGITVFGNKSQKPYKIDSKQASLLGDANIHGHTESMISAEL
ASSAY_SUMMARY: flow cytometry, PANC-1 cells
Keep it simple and answer with nothing but the number.

BINDER	Max
PR005341 (antibody, human IgG1, V domains shown, HCAb (heavy chain-only, human IgG1 Fc), no light chain) VH: EVQLVESGGGLVKPGGSLRLSCVASGFTFSDYYMSWIRQAPGKGLEWISYISSSGSSIYYAESVKGRFTISRDNAKNSLYLQMNRLRAEDTALYYCARTPPSSDNWYEDFDYWGQGALVTVSS	16500

[ask] What value of Max has been reported for the following binder? PR005343 (antibody, human IgG1, V domains shown, HCAb (heavy chain-only, human IgG1 Fc), no light chain) VH: EVQLVESGGGLVKPGGSLRLSCVASGFTFSDYYMSWIRQAPGKGMEWISYISSSGSTKNYANSVKGRFTISRDNAKNSLYLQMNSLRAEDTAAYYCARVPPYNASWYEDFDYWGQGTLVTVSS
[reply] 18300

Where do these numbers come from? They come from patent US20250257130A1.
